// provenance: PubChem BioAssay (NCI)

A collection of compounds and their measured TGI
# Test system: HOP-92 NSCLC
# assay notes: NCI tumour cell line growth inhibition, 48 h
*1 amine or outer side, *2 acyl side, *3 side chain or, on linkers, in order; H or OH if unused. Where a SMILES comes first, the peptide text is derived from it. Bridges are numbered along the chain shown (N, C = ends). [ ]: non-standard residue; d: D form. The star is where a group is joined. ξ: configuration not given here. γ4hArg(2R,3R-(OH)2) = N=C(N)NCCC[C@H](N[*:1])[C@@H](O)[C@@H](O)C(=O)[*:2]; Gln(3S,4R-Me2) = C[C@H]([C@H](N)C(=O)O)[C@@H](C)C(N)=O; X43 = CC(C)C[C@H](C)[C@@H](O)[C@@H](C)C(=O)*; X44 = COC(c1ccc(O)cc1)C(N[*:1])C(=O)[*:2]; NMeQ = CN[C@@H](CCC(N)=O)C(=O)O; Thr(3ξ) = CC(O)[C@H](N)C(=O)O; NMeA = CN[C@@H](C)C(=O)O

Below, 10 compounds whose answers are already recorded.
Query: Request body: readout TGI, system HOP-92 NSCLC, query `O=C1C(Nc2ccc(Cl)cc2)=C(I)C(=O)c2ncccc21` . Return the value.
Result: 2.9 µM

Query: // same read-out, input: `C/C(=N/NC(=S)N1CCCCC1)c1ccccc1O`
Result: > 31.6 µM

Query: Follow-up item: COc1cccc(N2C(=O)C3c4[nH]c5ccccc5c4C4CCCC4C3C2=O)c1 (stereo not drawn)
Result: > 10 µM

Query: Try N#CC1(C#N)NC(c2cccs2)C(C#N)(C#N)NC1c1cccs1 (stereo not drawn) next.
Result: 78.7 µM

Query: Then `CN(C)c1nc(N)nc(CS)n1` ?
Result: > 100 µM

Query: And Cc1ccc(OCC2OC(n3cnc4c(Cl)nc(N)nc43)CC2Oc2ccc(C)cc2)cc1 (stereo not drawn) ?
Result: 51.7 µM

Query: For `N#C/C(=C\c1ccsc1)c1nc2ccccc2o1` then?
Result: 42.8 µM

Query: Check CN(C)CCN1C(=O)c2c(c3c4ccccc4n4c3c3c2c2ccccc2n3C2CC(O)C(O)C4(C)O2)C1=O (stereo not drawn) too.
Result: 11.9 µM

Query: `Cc1nc(Nc2ccccc2)sc1C(=O)CC(=O)C(=O)Nc1c(C(C)C)cccc1C(C)C` , same question.
Result: > 100 µM

Query: Would you mind doing `COc1cc2ccnc3c2c(c1OC)-c1coc(SC)c1-3` as well?
Result: > 100 µM

Others:
Query: Please tell me: TGI of COC(c1ccc(O)cc1)C1NC(=O)[C@H](CCC(N)=O)N(C)C(=O)[C@H](CC(C)C)NC(=O)[C@@H](CCCN=C(N)N)NC(=O)[C@H](C(C)O)NC(=O)[C@@H](NC(=O)[C@@H](NC(=O)[C@H](O)[C@H](O)[C@H](CCCN=C(N)N)NC(=O)[C@H](C)NC(=O)[C@H](C)[C@H](O)[C@@H](C)CC(C)C)[C@@H](C)[C@@H](C)C(N)=O)[C@@H](C)OC(=O)[C@H](C)N(C)C1=O (stereo partly drawn) (X43-A[γ4hArg(2R,3R-(OH)2)][Gln(3S,4R-Me2)]T[Thr(3ξ)][dR]L[NMeQ][X44][NMeA]; ester 4-C) , system HOP-92 NSCLC?
Result: 0.614 µM

Query: Now the same for `CSc1nnc(CCC(=O)Nc2c(C)cccc2C)o1`
Result: > 100 µM

Query: One more compound: `Cc1ccc(S(=O)(=O)n2c3ccc(Br)cc3c3nc4ccccc4nc32)cc1`
Result: > 100 µM

Query: Same lookup for `Cn1ncnc1[C@H]1c2n[nH]c(=O)c3cc(F)cc(c23)N[C@@H]1c1ccc(F)cc1` , please.
Result: > 100 µM

Query: Further, for `O=c1[nH]nc(-c2ccccc2)n1/N=C\c1ccccc1` ?
Result: > 100 µM

Query: Further, for NNC(=O)C1CCC(=O)N1S(=O)(=O)c1ccccc1 (stereo not drawn) ?
Result: > 100 µM

Query: Also `C=C/C=C/NC(=O)OCc1ccccc1` ?
Result: > 100 µM

Query: Also `COc1ccc2c(c1)c(CC(=O)[Se]C)c(C)n2C(=O)c1ccc(Cl)cc1` ?
Result: > 0.533 µM
